All figures here come from the supplement of paper PMC6555819.

# Test system: RARb:RXRa (NR concentration 270 nM, RXRa partner concentration 90 nM)
# method notes: PBM binding z-score (relative to random genomic background probes); higher = stronger binding; sequences stand for … in GC…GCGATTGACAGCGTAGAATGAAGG
property label: PBM binding z-score
Please reply with the number alone, leaving off any unit.

q: So what does the record say about PBM binding z-score for CCTTACGGGTCACGATGTTATAGCACGACGAGCG ?
a: 4.39

q: So what does the record say about PBM binding z-score for TCATATAGGTAAAAGCTGAAAGTCGGTGTGGTAA ?
a: 0.0291

q: So what does the record say about PBM binding z-score for GCAGACAGGTCAAACGCAGGTAACTCAGGGTGGC ?
a: 4.17

q: So what does the record say about PBM binding z-score for CCTAGTTGGTCCAGGTCACACACGCTATAGGTAC ?
a: 2.59

q: So what does the record say about PBM binding z-score for CCAACTGGGGCAAAGGTTACCATACTCAGTACGA ?
a: 2.65

q: So what does the record say about PBM binding z-score for TCTCGGAGGACACGGAGGTCAGAGCTTTCCAGAG ?
a: 3.25
